- measurement_protocol: yeast display, Sf9 membrane polyspecificity reagent, FACS + sequencing; frameworks hold sequencing errors
recorded_metric: polyreactivity (PSR sort gate)

Recorded results for 4 sequences are shown here.
[
  {
    "sequence_data": "QVQLVESGGGLVQAGGSLRISCAASGSTFYYYAMGWYRQAPGKEREFVAAITFRCGTTYYADSVKGRFTISRDYAKNTVYLQMNSLKREDTAVYYCDAKPPFRNYVRYDYWGQGTQVTVSS",
    "polyreactivity (PSR sort gate)": "high polyreactivity"
  },
  {
    "sequence_data": "QVQLVESGGGLVHAGGSLRLSCAASGRIFTTNAMGWYRQAPGKERELVASITRSGSTYYADSVKGRFTISRDNAKNTVYLQMNSLKPEVTAVYYCAAYAYIFLDWGGYPYYLYEYDYWGQGTQVTVSS",
    "polyreactivity (PSR sort gate)": "low polyreactivity"
  },
  {
    "sequence_data": "QVQLVESGGGLVQAGGSLRLSCAASGRTCWYKAMGWYRQAPGKERELVAPITSGGRTKYADSVKGRFTISRDNAKNTVYLQMNSLKPEDTAVYYCNTYNRRSGTLPKPYDYWGQGTQVTVSS",
    "polyreactivity (PSR sort gate)": "high polyreactivity"
  },
  {
    "sequence_data": "QVQLVESGGGLVQAGGSLRLSCAASGSTFLIKAMGWYRQAPGKEREVVASIRYRGATTYADSVKGRFTISRDNAKNTVYLQLKSLKPEDTAVYYCAAVHWRYQYSLRYDYWGQGTQVTVSW",
    "polyreactivity (PSR sort gate)": "high polyreactivity"
  }
]

Next item in the queue.
In: I would be grateful if you could share the reported polyreactivity (PSR sort gate) for QVQLQESGGGLVQAGGSLRLSCASSGSIFKVVDKGLYRQAPAKEREFVATIGEGGNTYYADSVKGRFTISRDNAKNTVYLQMNSLKPEDTAVYFYAVVLGTSYRYTYWGQGTQVTVSS .
Out: low polyreactivity
